Assignment: determine reported SH2 binding enrichment for the given sequences.
assayed_system: Grb2 SH2 (UniProt P62993)
Sequence (P62993 whole entry, looked up, the tested form may be a part): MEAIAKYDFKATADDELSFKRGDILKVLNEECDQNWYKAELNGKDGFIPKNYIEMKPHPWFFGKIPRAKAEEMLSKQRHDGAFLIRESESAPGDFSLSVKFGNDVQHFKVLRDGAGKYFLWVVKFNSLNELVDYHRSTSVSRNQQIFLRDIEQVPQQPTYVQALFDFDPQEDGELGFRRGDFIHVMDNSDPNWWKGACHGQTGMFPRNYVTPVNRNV
assay_text: SH2 binding enrichment of the phosphorylated peptide, bacterial display (enrichment ratio); higher = better substrate or ligand; peptides without Tyr show the background;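 further: peptide library displayed on the E. coli surface as eCPX fusions, selected cells deep-sequenced, score is each peptide's frequency after selection divided by its frequency in the input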
Answers are plain numbers.

Known results for sequences:
NAGDYYDLYGG [PTPN11_Y63_T59A] : 0.89
DEDEEYEYMNR [ERBB3_Y1197] : 1.02
RNDLDYMDSRR [GAA_Y407_W402R] : 0.971
EKQLLYSENKT [FRK_Y132] : 0.976

Items follow; give SH2 binding enrichment for each.
1. KTDVRYRSLGG [DYSF_Y1858_H1857R]
2. TVFENYVADIE [RHOA_Y42]
3. KVPELYEIHKE [BCR_Y554]
4. SRLSAYPALEG [CD5_Y465_H461R]
5. DSILVYQGKEQ [USH2A_Y1909]
6. ESMLRYEVFGG [STOX1_Y607_YF]
7. DHCNQYEQQKM [CHD7_Y75_Y72C]

1: 0.898; 2: 0.798; 3: 0.996; 4: 0.899; 5: 0.707; 6: 0.76; 7: 0.971

Items follow; give SH2 binding enrichment for each.
1. RETLTYAQAQR [BRD1_Y33]
2. HLWRIYYDITD [MMP27_Y307]
3. SVVVPYEPTEV [TP53_Y220_P223T]
4. RGLQVYHKRNA [LRP2_Y2010_R2012K]
5. PTEAQYRFIFM [PTPN11_Y511_Q506P_YF]
6. GEVLVYAEDPA [FLNA_Y319_V320A]
7. VVRSLYEDLED [VHL_Y185_I180V]

1. 0.904
2. 0.869
3. 0.66
4. 0.943
5. 0.585
6. 0.874
7. 0.988

Items follow; give SH2 binding enrichment for each.
1. MLEVSYVDRNS [F10_Y384_P383S]
2. TEDPEYDVQSK [PTCHD3_Y335]
3. KDQGGYTMHQD [MAPT_Y29]

0.67
0.913
0.722
